Assign normalized growth to each entry below.
- PROTOCOL_NOTES: chemical genetic growth profiling, strain panel (AID 1159580);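 note: tested at 20 µM; growth read once vehicle control cultures reached saturation at 30 °C; 1 = growth at the plate median or of vehicle wells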
- CONDITION_SET: S. cerevisiae deletion strains, growth OD, locus YER016W, strain bim1, stronger effect = lower value
About 2,000 (36%) of roughly 5,500 compounds were called active. About 18% were inconclusive and are not listed. The list shows a part of the results.
Give bare numbers.

Dear colleague, could you send me normalized growth for each of the items below? Thanks.
1. COc1ccc2c(c1)CCC1C2CCC2(C)C1C[C@@H](O)C2O (stereo partly specified)
2. C[C@@H]1CC[C@@]2(OC1)OC1CC3C4CC=C5C[C@@H](O)CC[C@]5(C)C4CC[C@]3(C)C1[C@@H]2C (stereo partly specified)
3. CCN[C@@H]1C[C@H](N)[C@@H](O[C@H]2OC(CN)=CC[C@H]2N)[C@H](O)[C@H]1OC1OC[C@](C)(O)[C@H](NC)[C@H]1O (stereo partly specified)

1. 0.979
2. 0.993
3. 0.997

Respectfully, I request normalized growth for each entry included below.
1. OCC(O)C(O)C(O)C(O)C(O)CO (stereo unspecified)
2. C=C[C@H]1CN2CC[C@H]1C[C@@H]2[C@@H](OC(=O)OCC)c1ccnc2ccc(OC)cc12
3. CCCCCCC(C)OC(=O)COc1ccc(Cl)cc1Cl (stereo unspecified)
4. CN[C@@H]1C(O)[C@@H](O[C@@H]2[C@@H](O)[C@H](O[C@H]3OC(CN)=CC[C@H]3N)[C@@H](N)C[C@H]2N)OC[C@]1(C)O (stereo partly specified)
5. C[C@@H]1CC[C@@]2(OC1)O[C@H]1CC3C4CC[C@H]5C[C@@H](O)CC[C@]5(C)C4CC[C@]3(C)[C@H]1[C@@H]2C (stereo partly specified)
6. C[C@]12CCC3c4ccc(O)cc4CCC3C1C[C@@H](O)[C@@H]2O (stereo partly specified)
7. CC1CCC2(OC1)OC1CC3C4CC[C@H]5C[C@@H](O)CC[C@]5(C)C4CC(=O)[C@]3(C)C1C2C (stereo partly specified)
8. CC(C)[N+](C)(CCC(C(N)=O)(c1ccccc1)c1ccccc1)C(C)C

0.983
0.995
0.99
0.979
0.998
1
1.01
0.998

====

- PROTOCOL_NOTES: chemical genetic growth profiling, strain panel (AID 1159580)
- CONDITION_SET: S. cerevisiae deletion strains, growth OD, locus YDL214C, strain PRR2, stronger effect = lower value
The campaign covered roughly 5,500 compounds. About 2,000 (36%) were called active. About 18% were inconclusive and are not listed. The list shows a part of the results.
MEASURED_ATTRIBUTE: normalized growth

For each listed entry, give its normalized growth.
1. CC(C)(C)NC(=S)N/N=C\c1ccccc1O
2. O/N=C(/c1ccc(Cl)cc1)c1cc2ccccc2o1
3. FC(F)(F)c1ccc(N2CCc3ccccc3C2)c(NC(=S)Nc2cc(Cl)cc(Cl)c2)c1
4. FC(F)(F)c1cccc(NC(=S)NN=C2CCCCCC2)c1
5. O=C(NNc1ccc(F)cc1F)c1sccc1Cl

["0.924 (inactive)", "0.887 (inactive)", "0.924 (inactive)", "0.909 (inactive)", "0.924 (inactive)"]

====

- PROTOCOL_NOTES: chemical genetic growth profiling, strain panel (AID 1159580)
- CONDITION_SET: S. cerevisiae deletion strains, growth OD, locus YLR039C, strain RIC1, stronger effect = lower value
The whole screen tested about 5,500 compounds, of which about 2,000 (36%) were called active. Not shown: some 18% with an inconclusive outcome. This is one part of the list.
MEASURED_ATTRIBUTE: normalized growth
Answers are plain numbers.

Completed entries (count: 2):
MOLECULE: CC(C)(C)NCC(O)c1cc(Cl)c(N)c(Cl)c1 (stereo not drawn)
normalized growth: 1.02
--
MOLECULE: CC1(C)C(=O)C=C[C@@]2(C)C1C[C@@H](O)[C@]1(C)C2CC[C@@]2(C)[C@H](c3ccoc3)OC(=O)[C@H]3O[C@]321 (stereo partly drawn)
normalized growth: 0.972

In one line, give reported normalized growth of the entry CC(C)(C)NCC(O)c1cc(O)cc(O)c1 (stereo not drawn) .
0.978

====

- PROTOCOL_NOTES: chemical genetic growth profiling, strain panel (AID 1159580);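 note: tested at 20 µM; growth read once vehicle control cultures reached saturation at 30 °C; 1 = growth at the plate median or of vehicle wells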
- CONDITION_SET: S. cerevisiae deletion strains, growth OD, locus YJL092W, strain hpr5
The whole screen tested about 5,500 compounds, of which about 2,000 (36%) were called active. Not shown: some 18% with an inconclusive outcome. No stated cut-off is given here; in the data, active means normalized growth mostly below about 0.91 (no sharp cut-off); inconclusive means no clear call, values can overlap the other calls; inactive means mostly above about 0.92. The list shows a part of the results.
Entry note: the call must match one of YES = active, NO = inactive

For CCCCCC(=O)Cc1cc(O)cc(O)c1C(=O)Oc1cc(CC(=O)CCCCC)c(C(=O)O)c(OC)c1 , what call appears in the results of this test?
NO

Hi, sorry to bother you, what did the test record for CC(=O)O[C@]1(C(C)=O)CCC2C3C=C(Cl)C4=CC(=O)[C@@H]5C[C@@H]5[C@]4(C)C3CC[C@@]21C (stereo partly drawn) ?
NO

Please state the recorded outcome for this molecule: CC(=O)O[C@@H]1CC2C(C)(C)C(=O)C=C[C@]2(C)C2CC[C@@]3(C)[C@H](c4ccoc4)OC(=O)[C@H]4O[C@]43[C@@]21C (stereo partly drawn)
NO

====

- PROTOCOL_NOTES: chemical genetic growth profiling, strain panel (AID 1159580);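 note: tested at 20 µM; growth read once vehicle control cultures reached saturation at 30 °C; 1 = growth at the plate median or of vehicle wells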
- CONDITION_SET: S. cerevisiae deletion strains, growth OD, locus YOR231W, strain MKK1
Screen size: about 5,500 compounds; about 2,000 (36%) were called active. Not shown: some 18% with an inconclusive outcome. No stated cut-off is given here; in the data, active means normalized growth mostly below about 0.91 (no sharp cut-off); inconclusive means no clear call, values can overlap the other calls; inactive means mostly above about 0.92. This is one part of the list.
The categories you may choose from are true (1) = active, false (0) = inactive

Below are worked cases with known answers.
COMPOUND: Cc1ccc(NNC(=O)c2cccs2)cc1Cl
CAT: false (0)
--
COMPOUND: O=C(O[C@@H]1Cc2c(O)cc(O)cc2O[C@@H]1c1cc(O)c(=O)c2c(O)c(O)cc([C@H]3Oc4cc(O)cc(O)c4C[C@H]3O)c2c1)c1cc(O)c(O)c(O)c1
CAT: false (0)
--
COMPOUND: CC(C)(C)C(=O)NC(=S)N/N=C\c1cc(Cl)cc(Cl)c1O
CAT: true (1)
--
COMPOUND: OC(COc1ccc(F)cc1)(c1ccccc1)c1ccccc1
CAT: false (0)
--
COMPOUND: COCCCNC(=S)N/N=C\c1cc(Br)ccc1O
CAT: false (0)
--
COMPOUND: O=C(NNc1ccc(F)cc1F)c1sccc1Cl
CAT: false (0)

Consider now this further compound.
Record lookup: outcome of this test for NC(CSCSCC(N)C(=O)O)C(=O)O (configuration not stated) ?
false (0)

====

- PROTOCOL_NOTES: chemical genetic growth profiling, strain panel (AID 1159580);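 note: tested at 20 µM; growth read once vehicle control cultures reached saturation at 30 °C; 1 = growth at the plate median or of vehicle wells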
- CONDITION_SET: S. cerevisiae deletion strains, growth OD, locus YHR129C, strain ARP1, stronger effect = lower value
The campaign covered roughly 5,500 compounds. About 2,000 (36%) were called active. About 18% were inconclusive and are not listed. This is one part of the list.
MEASURED_ATTRIBUTE: normalized growth
Give bare numbers.

COMPOUND: COc1ccc(Cl)cc1C(=O)NCCc1ccc(S(=O)(=O)NC(=O)NC2CCCCC2)cc1
normalized growth: 0.993

COMPOUND: COc1cc(OC)c2ccc(=O)oc2c1
normalized growth: 1.01

COMPOUND: COc1cc(O)c2c(=O)c(O)c(-c3ccc(O)c(O)c3)oc2c1
normalized growth: 0.875

COMPOUND: CC(=O)[C@@]1(O)CCC2C3C[C@H](C)C4=CC(=O)C=CC4(C)[C@@]3(F)[C@@H](O)C[C@@]21C (some centres undefined)
normalized growth: 1.01

COMPOUND: CCC1OC(=O)[C@H](C)C(=O)[C@H](C)[C@@H](OC2O[C@H](C)C[C@H](N(C)C)[C@H]2O)[C@](C)(OC)C2(CCCn3cnc(-c4cccnc4)c3)C[C@@H](C)C(=O)[C@H](C)[C@H]3N(C2)C(=O)O[C@]13C (some centres undefined)
normalized growth: 1

COMPOUND: COc1cc(OC)c2c(=O)c(OC)c(-c3ccc(OC)c(OC)c3)oc2c1
normalized growth: 0.992

COMPOUND: C[C@]12CCC3c4ccc(O)cc4CCC3C1CC[C@@H]2O (some centres undefined)
normalized growth: 1

COMPOUND: NC(=O)NCC(N)C(=O)O (centres undefined)
normalized growth: 1.02

COMPOUND: COC(=O)C[C@H]1C(C)(C)C2(Cl)O[C@@]34CC2C(=O)[C@]1(C)C3CC[C@]1(C)C4=CC(=O)O[C@H]1c1ccoc1 (some centres undefined)
normalized growth: 1

COMPOUND: O=c1c(O)c(-c2cc(O)c(O)c(O)c2)oc2cc(O)cc(O)c12
normalized growth: 1.02

# per-item lookup of normalized growth; items listed below
1. CC(C1OC(C)(C)C(O)C1O)[C@@H]1CC[C@]2(C)C3=CCC4C(C)(C)C(=O)CC[C@]4(C)C3CC[C@@]12C (some centres undefined)
2. C[C@@H]1O[C@@H](OC[C@H]2OC(Oc3c(-c4ccc(OCCO)c(OCCO)c4)oc4cc(OCCO)cc(O)c4c3=O)[C@H](O)[C@@H](O)[C@@H]2O)[C@H](O)[C@H](O)[C@H]1O (some centres undefined)
3. O=C(Cc1cccs1)NC1C(=O)N2C(C(=O)[O-])=C(C[n+]3ccccc3)CSC12 (centres undefined)
4. COc1cc(OC)c2c(=O)c(O)c(-c3ccc(OC)c(OC)c3)oc2c1

1. 1
2. 0.99
3. 1.01
4. 0.589
